# System: HL-60 (human promyelocytic leukemia)
# Test summary: Antiproliferative assay in vitro (MTT), HL-60
# Assay type: cell-based
# Protocol conditions: Homo sapiens; HL-60 cancer cell line; 96 h exposure; read-out: Cytotoxic activity IC50, HL-60
Measurement name: IC50 (µg/mL)
Express your answer in µg/mL, writing the number without its unit.

>  <Compound>
C=C(C)[C@@H]1CC[C@]2(COC(=O)OCCC)CC[C@]3(C)C(CCC4[C@@]5(C)CCC(=O)C(C)(C)C5CC[C@]43C)C12 (stereo partly drawn) [Compound 22, 28-O-Propoxycarbonylbetulone]

>  <Units of measure>
µg/mL

>  <IC50>
21.4

$$$$
>  <Compound>
C=C(C)[C@@H]1CC[C@]2(COC(=O)C#CC)CC[C@]3(C)C(CCC4[C@@]5(C)CC[C@H](O)C(C)(C)C5CC[C@]43C)C12 (stereo partly drawn) [Compound 9, 28-O-(2-Butynoyl)betulin]

>  <Units of measure>
µg/mL

>  <IC50>
24.5

$$$$

Here's the next entry for you.
Recorded result, C=CCOC(=O)OC[C@]12CC[C@@H](C(=C)C)C1C1CCC3[C@@]4(C)CCC(=O)C(C)(C)C4CC[C@@]3(C)[C@]1(C)CC2 (stereo partly drawn) [Compound 23, 28-O-Allyloxycarbonylbetulone] , IC50: 28.4

====

Listing: melting point of selected compounds

Known melting point results, listed for orientation:
>  <Compound>
C#CC(=O)OC[C@]12CC[C@@H](C(=C)C)C1C1CCC3[C@@]4(C)CCC(=O)C(C)(C)C4CC[C@@]3(C)[C@]1(C)CC2 (stereo partly shown)

>  <melting point>
93 to 96 °C

$$$$
>  <Compound>
C=C(C)[C@@H]1CC[C@]2(COC(=O)OCCC)CC[C@]3(C)C(CCC4[C@@]5(C)CCC(=O)C(C)(C)C5CC[C@]43C)C12 (stereo partly shown)

>  <melting point>
76 to 78 °C

$$$$
>  <Compound>
C=C(C)[C@@H]1CC[C@]2(COC(=O)C#CC)CC[C@]3(C)C(CCC4[C@@]5(C)CCC(=O)C(C)(C)C5CC[C@]43C)C12 (stereo partly shown)

>  <melting point>
92 to 94 °C

$$$$
>  <Compound>
C#CCCOC(=O)OC[C@]12CC[C@@H](C(=C)C)C1C1CCC3[C@@]4(C)CCC(=O)C(C)(C)C4CC[C@@]3(C)[C@]1(C)CC2 (stereo partly shown)

>  <melting point>
81 to 84 °C

$$$$

Recorded result, C#CCOC(=O)OC[C@]12CC[C@@H](C(=C)C)C1C1CCC3[C@@]4(C)CCC(=O)C(C)(C)C4CC[C@@]3(C)[C@]1(C)CC2 (stereo partly shown) , melting point: 173 to 175 °C

Recorded result, C=C(C)[C@@H]1CC[C@]2(COC(=O)C=CC)CC[C@]3(C)C(CCC4[C@@]5(C)CC[C@H](O)C(C)(C)C5CC[C@]43C)C12 (stereo partly shown) , melting point: 182 to 184 °C

Recorded result, C=CC(=O)OC[C@]12CC[C@@H](C(=C)C)C1C1CCC3[C@@]4(C)CC[C@H](O)C(C)(C)C4CC[C@@]3(C)[C@]1(C)CC2 (stereo partly shown) , melting point: 117 to 121 °C

Recorded result, C=CCOC(=O)OC[C@]12CC[C@@H](C(=C)C)C1C1CCC3[C@@]4(C)CCC(=O)C(C)(C)C4CC[C@@]3(C)[C@]1(C)CC2 (stereo partly shown) , melting point: 123 to 125 °C

Recorded result, C=C(C)[C@@H]1CC[C@]2(COC(=O)C#CC3CC3)CC[C@]3(C)C(CCC4[C@@]5(C)CC[C@H](O)C(C)(C)C5CC[C@]43C)C12 (stereo partly shown) , melting point: 108 to 113 °C

Recorded result, C=C(C)[C@@H]1CC[C@]2(COC(=O)C#CC3CC3)CC[C@]3(C)C(CCC4[C@@]5(C)CCC(=O)C(C)(C)C5CC[C@]43C)C12 (stereo partly shown) , melting point: 93 to 97 °C

====

# System: HL-60 (human promyelocytic leukemia)
# Test summary: Antiproliferative assay in vitro (MTT), HL-60
# Format: cell-based
# Protocol conditions: Homo sapiens; HL-60 cancer cell line; 96 h exposure; read-out: Cytotoxic activity IC50, HL-60
Measurement name: IC50 (µg/mL)
Express your answer in µg/mL, writing the number without its unit.

Known IC50 results, listed for orientation:
>  <Compound>
C#CC(=O)OC[C@]12CC[C@@H](C(=C)C)C1C1CCC3[C@@]4(C)CCC(=O)C(C)(C)C4CC[C@@]3(C)[C@]1(C)CC2 (some centres unmarked) [Compound 17, 28-O-Propynoylbetulone]

>  <Units of measure>
µg/mL

>  <IC50>
0.3

$$$$
>  <Compound>
C=CC(=O)OC[C@]12CC[C@@H](C(=C)C)C1C1CCC3[C@@]4(C)CC[C@H](O)C(C)(C)C4CC[C@@]3(C)[C@]1(C)CC2 (some centres unmarked) [Compound 4, 28-O-(2-Propenoyl)betulin]

>  <Units of measure>
µg/mL

>  <IC50>
18.8

$$$$
>  <Compound>
C=C(C)[C@@H]1CC[C@]2(COC(=O)CC)CC[C@]3(C)C(CCC4[C@@]5(C)CCC(=O)C(C)(C)C5CC[C@]43C)C12 (some centres unmarked) [Compound 15, 28-O-Propanoylbetulone]

>  <Units of measure>
µg/mL

>  <IC50>
33.7

$$$$

Recorded result, C=CC(=O)OC[C@]12CC[C@@H](C(=C)C)C1C1CCC3[C@@]4(C)CCC(=O)C(C)(C)C4CC[C@@]3(C)[C@]1(C)CC2 (some centres unmarked) [Compound 16, 28-O-(2-Propenoyl)betulone] , IC50: 5

Recorded result, C=C(C)[C@@H]1CC[C@]2(COC(=O)OCCC)CC[C@]3(C)C(CCC4[C@@]5(C)CC[C@H](O)C(C)(C)C5CC[C@]43C)C12 (some centres unmarked) [Compound 10, 28-O-Propoxycarbonylbetulin] , IC50: 26.8
